# Tested on: CCRIS mutagenicity, Ames/micronucleus/aberration tests
# ASSAY COMMENT: CCRIS mutagenicity studies
# RECORDED CONDITIONS: Test System: AMES SALMONELLA TYPHIMURIUM; Strain/Indicator: TA1538; Metabolic Activation: MOUSE, LIVER, S-9, AROCLOR 1254; Method: STANDARD PLATE
Calls of active or inactive are those of the source. The rule behind the calls is not given here.
Answer with one of the outcomes given here: yes (1) for active, no (0) for inactive

Lab log entry: Nc1cccc2c(N)cccc12 — outcome as called in the assay?
no (0)

Lab log entry: COc1ccc(N)cc1 — outcome as called in the assay?
no (0)

Lab log entry: CC(C)Cc1ccc(C(C)C(=O)O)cc1 (centres undefined) — outcome as called in the assay?
no (0)

Lab log entry: Nc1ccc(Cl)c(N)c1 — outcome as called in the assay?
yes (1)

Values from PubChem BioAssay AID1259407
